Measured koff by item
# SYSTEM_NAME: Pangolin CoV GD1 RBD (Pangolin coronavirus Guangdong, isolate …, strain)
# PROTOCOL_SUMMARY: BLI
# CONDITION: both partners purified
VALUE_TYPE: koff (s⁻¹)

[
  {
    "BINDER": "H14 (antibody, V domains shown, human IgG1) VH: QVQLQESGPGLVKPSQTLSLTCTVSGGSISSGGYYWSWIRQHPGKGLEWIGYIYYSGSTYYNPSLKSLVTISVDTSKNQFSLKLSSVTAADTAVYYCARKGWLRGAFDIWGQGTMVTVSS VL: NFMLTQPHSVSESPGKTVTISCTRSSGSIASNYVQWYQQRPGSSPTTVIYEDNQRPSGVPDRFSGSIDSSSNSASLTISGLKTEDEADYYCQSYDSSNVVFGGGTKLTVL",
    "ENDPOINT_VALUE": 0.0205
  },
  {
    "BINDER": "H18 (antibody, V domains shown, human IgG1) VH: QVQLQESGPGLVKPSETLSLTCTVSGGSVSSGGYFWSWIRQPPGKGLEWIGCIYYSGSTNYNPSLKSRVTISVDTSKDQFSLKLSSVTAADTAVYYCARQLWLRGRFDYWGQGTLVTVSS VL: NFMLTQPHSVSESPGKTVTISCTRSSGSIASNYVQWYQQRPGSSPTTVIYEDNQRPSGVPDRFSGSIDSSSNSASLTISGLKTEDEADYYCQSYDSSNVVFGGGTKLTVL",
    "ENDPOINT_VALUE": 0.00624
  },
  {
    "BINDER": "H4 (antibody, V domains shown) VH: EVQLVESGGGLVQPGGSLRLSCAASGFTFSSYWMSWVRQAPGKGLEWVANIKQDGSEKYYVDSVKGRFTISRDNAKNSLYLQMNSLRAEDTAVYYCASQLWLRGAFDIWGQGTMVTVSS VL: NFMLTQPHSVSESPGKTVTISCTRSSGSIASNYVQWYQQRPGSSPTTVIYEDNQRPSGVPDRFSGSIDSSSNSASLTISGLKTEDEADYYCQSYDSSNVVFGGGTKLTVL",
    "ENDPOINT_VALUE": 0.0102
  }
]
